Origin of values: patent US20170081400A1

Molecular target: T1, human TL1A extracellular domain with N-terminal HIS and FLAG tag (human, UniProt O95150 72-251)
T1 construct: the whole entry is named; also called TNFSF15
T1 sequence: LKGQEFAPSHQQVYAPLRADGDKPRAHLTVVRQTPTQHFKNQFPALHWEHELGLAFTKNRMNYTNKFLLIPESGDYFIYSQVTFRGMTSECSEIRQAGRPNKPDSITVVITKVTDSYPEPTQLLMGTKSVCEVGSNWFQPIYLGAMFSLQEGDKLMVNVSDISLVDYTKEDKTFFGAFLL
Assay: SPR Run 7, antibody on Protein A, TL1A 5 ug/mL, timepoint 44
assay_endpoint: TL1A Binding Level (Early)

- 320-559 (antibody, human IgG1, name in Kabat numbering, V domains shown, full-length human IgG1, lambda) VH: QVQLVQSGAEVKKPGASVKVSCKASGYTFTSYDINWVRQAPGQGLEWMGWLNPNSGNTQYAQKFQGRVTMTADRSTSTAYMELSSLRSEDTAVYYCAREVPETAAFEYWGQGTLVTVSS VL: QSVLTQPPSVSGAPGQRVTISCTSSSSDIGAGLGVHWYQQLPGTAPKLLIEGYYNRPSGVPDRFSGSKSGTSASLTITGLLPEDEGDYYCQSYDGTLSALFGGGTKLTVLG: 9 RU
- 320-542 (antibody, human IgG1, name in Kabat numbering, V domains shown, full-length human IgG1, lambda) VH: QVQLVQSGAEVKKPGASVKVSCKASGYTFTSYDINWVRQAPGQGLEWMGWLNPNSGDTGYAQKFQGRVTMTADRSTSTAYMELSSLRSEDTAVYYCAREVPETAAFEYWGQGTLVTVSS VL: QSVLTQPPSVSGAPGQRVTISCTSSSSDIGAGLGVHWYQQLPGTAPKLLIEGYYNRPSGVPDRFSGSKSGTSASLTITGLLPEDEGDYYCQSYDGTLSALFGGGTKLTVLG: 97 RU
